tested on: Caco-2 cells; assay: in vitro; type: in vitro ADME
Property Name: Permeability Papp (A to B) × 10^−6 cm/s (Caco-2 A-B)

Compound | Result Value
CC12OC(=O)O[C@@H]1[C@@H](CO)O[C@H]2n1cc2c3c(ncnc31)NC(=O)C=C2N (some centres unmarked) [Compound 116] | low
CC(C)C(=O)OC[C@H]1O[C@@H](n2cc3c4c(ncnc42)NC(=O)C=C3N)[C@@](C)(O)[C@@H]1OC(=O)C(C)C (stereo in doubt) [Compound 134] | low
CCCCCC(=O)OC[C@H]1O[C@@H](n2cc3c4c(ncnc42)NC(=O)C=C3N)[C@@](C)(O)[C@@H]1O (stereo in doubt) [Compound 101] | high
CCCCCOC(=O)OC[C@H]1O[C@@H](n2cc3c4c(ncnc42)NC(=O)C=C3N)[C@@](C)(O)[C@@H]1O (stereo in doubt) [Compound 103] | low

Consider the record given below.
Q: Could you tell me which Permeability Papp (A to B) × 10^−6 cm/s (Caco-2 A-B) is on file for CC(=O)N[C@H](C(=O)OC[C@H]1O[C@@H](n2cc3c4c(ncnc42)NC(=O)C=C3N)C(C)(O)[C@@H]1O)C(C)C (some centres unmarked) [Compound 124] ?
A: low

###

assay: Solubility (shaking flask); type: physicochemical; details: sterile water, thermodynamic from solid; water; 37° C. for 24 hours
Property Name: solubility at 24 h (µg/mL)
# value in µg/mL; strip the unit string

Q: solubility at 24 h lookup needed for CC(C)C(=O)OCOC(=O)NC1=CC(=O)Nc2ncnc3c2c1cn3[C@@H]1O[C@H](COC(=O)C(C)C)[C@@H](O)C1(C)O (stereo partly shown) [Compound 129] , thanks.
A: 120

###

assay: Solubility (shaking flask); type: physicochemical; details: phosphate buffer solution (PBS), aqueous buffer, thermodynamic from solid; PBS; 37° C. for 24 hours
Property Name: solubility at 24 h (µg/mL)

// known answers, use as guide
Compound | solubility at 24 h / µg/mL
CC(C)C(=O)OCOC(=O)NC1=CC(=O)Nc2ncnc3c2c1cn3[C@@H]1O[C@H](CO)[C@@H](O)[C@]1(C)O (stereo in doubt) | 215
CCCCCOC(=O)NC1=CC(=O)Nc2ncnc3c2c1cn3[C@@H]1O[C@H](CO)[C@@H](O)[C@@]1(C)O | 32
CC(=O)OC[C@H]1O[C@@H](n2cc3c4c(ncnc42)NC(=O)C=C3NC(=O)OCOC(=O)C(C)C)C(C)(O)[C@@H]1OC(C)=O (stereo in doubt) | 60
CCC(=O)OC[C@H]1O[C@@H](n2cc3c4c(ncnc42)NC(=O)C=C3N)C(C)(O)[C@@H]1OC(=O)CC (stereo in doubt) | 850
CCC(=O)OC[C@H]1O[C@@H](n2cc3c4c(ncnc42)NC(=O)C=C3N)C(C)(OC(=O)CC)[C@@H]1OC(=O)CC (stereo partly drawn) | 133
CC(=O)O[C@@H]1[C@@H](CO)O[C@@H](n2cc3c4c(ncnc42)NC(=O)C=C3NC(=O)OCOC(=O)C(C)C)[C@]1(C)O | 80

A = CC(=O)OC[C@H]1O[C@@H](n2cc3c4c(ncnc42)NC(=O)C=C3N)C(C)(OC(C)=O)[C@@H]1OC(C)=O (stereo in doubt)
B = CC1(O)C(O)C(CO)OC1n1cc2c3c(ncnc31)NC(=O)C=C2N (stereo not drawn) [Compound 100, reference compound]
C = CC(C)C(=O)OC[C@H]1O[C@@H](n2cc3c4c(ncnc42)NC(=O)C=C3N)[C@@]2(C)OC(=O)O[C@H]12
Q: Kindly order the items shown according to solubility at 24 h, from the highest value down. Reply: labels, ordered per the request.
A: A, C, B
(A: 510 µg/mL, C: 65 µg/mL, B: 11 µg/mL)

I = CCCCCC(=O)OC[C@H]1O[C@@H](n2cc3c4c(ncnc42)NC(=O)C=C3N)[C@@](C)(O)[C@@H]1OC(=O)CCCCC (stereo in doubt)
II = CC(=O)OC[C@H]1O[C@@H](n2cc3c4c(ncnc42)NC(=O)C=C3N)[C@@](C)(O)[C@@H]1O (stereo in doubt)
Q: Could you determine which record has the numerically smaller solubility at 24 h? Candidates: I and II Indicate your choice by writing its label.
A: I
